Relative Affinity listing for selected binders.
- target or system: T1, Insulin-like Growth Factor II (IGF-II), recombinant human (human, UniProt P01344 25-91, biotinyl group (site not stated) when immobilised for SPR; not biotinylated as SPR analyte or in ITC)
- T1 construct: mature; Bought as Biotinyl-IGF-II from GroPep for immobilisation on streptavidin chips; also called IGF2; Biotinyl-IGF-II
- T1 sequence (P01344 25-91): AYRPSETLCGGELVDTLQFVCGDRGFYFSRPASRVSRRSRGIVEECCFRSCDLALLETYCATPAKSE
- test method notes: SPR, steady-state KD relative to wild type domain 11

Answered examples (3):
>  <binder>
IGF2R domain 11 T1570A (receptor, Secreted from Pichia pastoris) NEHDDCQVTNPSTGHLFDLSSLSGRAGFTAAYSEKGLVYMSICGENENCPPGVGACFGQARISVGKANKRLRYVDQVLQLVYKDGSPCPSKSGLSYKSVISFVCRPEAGPTNRPMLISLDKQTCTLFFSWHTPLACEQATHHHHHH

>  <quantity name>
Relative Affinity

>  <recorded result>
0.11 fold vs wild type domain 11

$$$$
>  <binder>
IGF2R domain 11 S1543A (receptor, Secreted from Pichia pastoris) NEHDDCQVTNPSTGHLFDLSSLSGRAGFTAAYAEKGLVYMSICGENENCPPGVGACFGQTRISVGKANKRLRYVDQVLQLVYKDGSPCPSKSGLSYKSVISFVCRPEAGPTNRPMLISLDKQTCTLFFSWHTPLACEQATHHHHHH

>  <quantity name>
Relative Affinity

>  <recorded result>
0.39 fold vs wild type domain 11

$$$$
>  <binder>
IGF2R domain 11 G1619R (common human polymorphism) (receptor, Secreted from Pichia pastoris) NEHDDCQVTNPSTGHLFDLSSLSGRAGFTAAYSEKGLVYMSICGENENCPPGVGACFGQTRISVGKANKRLRYVDQVLQLVYKDGSPCPSKSGLSYKSVISFVCRPEARPTNRPMLISLDKQTCTLFFSWHTPLACEQATHHHHHH

>  <quantity name>
Relative Affinity

>  <recorded result>
0.9 fold vs wild type domain 11

$$$$

Field: next binder
Problem: Fill in Relative Affinity for record IGF2R domain 11 E1544A (receptor, Secreted from Pichia pastoris) NEHDDCQVTNPSTGHLFDLSSLSGRAGFTAAYSAKGLVYMSICGENENCPPGVGACFGQTRISVGKANKRLRYVDQVLQLVYKDGSPCPSKSGLSYKSVISFVCRPEAGPTNRPMLISLDKQTCTLFFSWHTPLACEQATHHHHHH
Result: 2.79 fold vs wild type domain 11

src = patent US20130071366A1
